Numbers sourced from patent US20100015141A1.

This section lists IC50 readings for PI3K-γ (Homo sapiens).
Give just the number in nM; leave the unit off.

Below are worked cases with known answers.
> print(dat)
                                   molecule          target.entity  numeric.readout
1  CC(C)N1CCN(C(=O)c2ccc(NC(=O)Nc3ccc(Nc4nc(Nc5ccc(C(N)=O)cc5)c5cnn(C)c5n4)cc3)cc2)CC1 [Example 87]  PI3K-γ (Homo sapiens)                5
2  NC(=O)c1ccc(Nc2nc(-c3cccc([N+](=O)[O-])c3)nc3c2cnn3C2CCN(Cc3ccccc3)CC2)cc1 [Example 21]  PI3K-γ (Homo sapiens)             2460
3  NC(=O)c1cccc(Nc2nc(-c3ccccc3)nc3c2cnn3C2CCN(Cc3ccccc3)CC2)c1 [Example 3]  PI3K-γ (Homo sapiens)             5020
4  CC(C)NC(=O)Nc1ccc(Nc2nc(Nc3ccc(C(N)=O)cc3)c3cnn(C)c3n2)cc1 [Example 89]  PI3K-γ (Homo sapiens)              523
5  CN1Cc2cc(Nc3nc(Nc4ccc(NC(=O)Nc5cccnc5)cc4)nc4c3cnn4C)ccc2C1=O [Example 95]  PI3K-γ (Homo sapiens)              148

Input line: Param request: IC50 | system PI3K-γ (Homo sapiens) | item CC(=O)Nc1cccc(Nc2nc(-c3ccccc3)nc3c2cnn3C2CCN(Cc3ccccc3)CC2)c1 [Example 5]
Output line: 7000

Input line: Param request: IC50 | system PI3K-γ (Homo sapiens) | item CC(=O)Nc1ccc(N(C)c2nc(-c3ccccc3)nc3c2cnn3C)cc1 [Example 35]
Output line: 7470

Input line: Param request: IC50 | system PI3K-γ (Homo sapiens) | item CC(=O)Nc1ccc(Oc2nc(-c3cccc(C(F)(F)F)c3)nc3c2cnn3C)cc1 [Example 52]
Output line: 10500

Input line: Param request: IC50 | system PI3K-γ (Homo sapiens) | item COc1ccc(Nc2nc(-c3ccccc3)nc3c2cnn3C2CCN(Cc3ccccc3)CC2)cc1OC [Example 2]
Output line: 5100

Input line: Param request: IC50 | system PI3K-γ (Homo sapiens) | item Oc1cccc(-c2nc(Nc3ccc4[nH]ccc4c3)c3cnn(C4CCN(Cc5ccccc5)CC4)c3n2)c1 [Example 9]
Output line: 13100

Input line: Param request: IC50 | system PI3K-γ (Homo sapiens) | item Cn1ncc2c(Nc3ccc(C(N)=O)cc3)nc(Nc3ccc(NC(=O)Nc4ccc(C(=O)N5CCOCC5)cc4)cc3)nc21 [Example 84]
Output line: 5

Input line: Param request: IC50 | system PI3K-γ (Homo sapiens) | item CC(=O)Nc1ccc(Oc2nc(-c3ccc(O)cc3)nc3c2cnn3C)cc1 [Example 54]
Output line: 398

Input line: Param request: IC50 | system PI3K-γ (Homo sapiens) | item NC(=O)c1cccc(Nc2nc(-c3cccc(O)c3)nc3c2cnn3C2CCNCC2)c1 [Example 18]
Output line: 9720

Input line: Param request: IC50 | system PI3K-γ (Homo sapiens) | item CNC(=O)Nc1ccc(-c2nc(Nc3ccc(C(N)=O)cc3)c3cnn(C)c3n2)cc1 [Example 77]
Output line: 2900

Input line: Param request: IC50 | system PI3K-γ (Homo sapiens) | item COc1ccc(-c2nc(Oc3ccc4[nH]ccc4c3)c3cnn(C)c3n2)cc1OC [Example 39]
Output line: 118
